- System: Staphylococcus aureus
- test.protocol: In vivo efficacy against Staphylococcus aureus 10649, in mouse protection tests when administered subcutaneously (sc)
- Format: functional
Please respond with reported ED50 for every item in the list.

IN: Query: ED50; subject: N[C@H]1CC(CO)N(c2cc3c(cc2F)c(=O)c(C(=O)O)cn3-c2ccc(F)cc2F)C1 (some centres undefined)
OUT: 0.7 mg/kg

IN: Query: ED50; subject: C[C@H]1C[C@H](N)CN1c1nc2c(cc1F)c(=O)c(C(=O)O)cn2-c1ccc(F)cc1
OUT: 2 mg/kg

IN: Query: ED50; subject: C[C@H]1C[C@H](N)CN1c1cc2c(cc1F)c(=O)c(C(=O)O)cn2-c1ccc(F)cc1F
OUT: < 0.5 mg/kg

IN: Query: ED50; subject: O=C(O)c1cn(C2CC2)c2cc(N3CCNCC3)c(F)cc2c1=O
OUT: 1.6 mg/kg
